# TESTED_TARGET: UniProt P29597
# EXPERIMENT: JAK kinase assay (HTRF), TYK2
# Format: biochemical
# CONDITIONS: catalytic domain (aa 871-1187), GST-tag, ATP at Km (13 μM)
QUANTITY_MEASURED: EC50 (nM)
Please give a number only; it is taken to be in nM.

Example compounds with recorded EC50:
> print(dat)
                                   compound   tested.target  quantity.measured  reading
1  C[C@]12CN(c3ccc(C#N)cn3)CC[C@H]1CCN(c1ncnc3[nH]ccc13)C2 (racemic)  UniProt P29597               EC50      453
2  C[C@@]12CN(c3ncnc4[nH]ccc34)CC[C@@H]1CN(S(=O)(=O)NCC#N)C2 (racemic)  UniProt P29597               EC50      364

Next compound, EC50 to be filled in.
IN: Param readout = EC50; param system = UniProt P29597; param query = C[C@]12CN(c3ccc(C#N)cn3)C[C@H]1CCN(c1ncnc3[nH]ccc13)C2 (racemic) ; response: value
OUT: 159

====

Listed here: items and their measured pEC50.
# TESTED_TARGET: JAK2 (Homo sapiens (Human))
# Sequence (O60674 849-1124): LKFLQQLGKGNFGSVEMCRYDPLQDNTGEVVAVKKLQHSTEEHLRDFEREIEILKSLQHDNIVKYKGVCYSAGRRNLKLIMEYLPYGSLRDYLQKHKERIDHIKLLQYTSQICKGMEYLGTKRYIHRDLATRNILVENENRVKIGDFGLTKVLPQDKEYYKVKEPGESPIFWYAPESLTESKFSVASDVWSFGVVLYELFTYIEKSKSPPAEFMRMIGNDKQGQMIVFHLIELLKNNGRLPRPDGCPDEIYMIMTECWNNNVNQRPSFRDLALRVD
# EXPERIMENT: JAK kinase assay (HTRF), JAK2
# CONDITIONS: catalytic domain, His-tag, ATP at Km (4 μM)
Entry type: numeric. Quantity: pEC50, the -log10 of concentration in molar units.

IN: Would you mind telling me what pEC50 value was observed for CC[C@]12CN(c3nc(C#N)cs3)CC[C@H]1CCN(c1ncnc3[nH]ccc13)C2 (relative stereo) ?
OUT: 6.86

IN: Would you mind telling me what pEC50 value was observed for C[C@]12CN(c3ncc(C#N)cn3)C[C@H]1CCN(c1ncnc3[nH]ccc13)C2 (racemic) ?
OUT: 6.67

IN: Would you mind telling me what pEC50 value was observed for C[C@]12CN(c3cnc(C#N)cn3)C[C@H]1CCN(c1ncnc3[nH]ccc13)C2 (racemic) ?
OUT: 7.66

IN: Would you mind telling me what pEC50 value was observed for CC[C@@]12CN(c3ncnc4[nH]ccc34)CC[C@@H]1CCN(S(N)(=O)=O)C2 [Example 18] ?
OUT: 8.52

====

Listed here: items and their measured pEC50.
# TESTED_TARGET: JAK1 (Homo sapiens (Human), UniProt P23458)
# Sequence (P23458 850-1154): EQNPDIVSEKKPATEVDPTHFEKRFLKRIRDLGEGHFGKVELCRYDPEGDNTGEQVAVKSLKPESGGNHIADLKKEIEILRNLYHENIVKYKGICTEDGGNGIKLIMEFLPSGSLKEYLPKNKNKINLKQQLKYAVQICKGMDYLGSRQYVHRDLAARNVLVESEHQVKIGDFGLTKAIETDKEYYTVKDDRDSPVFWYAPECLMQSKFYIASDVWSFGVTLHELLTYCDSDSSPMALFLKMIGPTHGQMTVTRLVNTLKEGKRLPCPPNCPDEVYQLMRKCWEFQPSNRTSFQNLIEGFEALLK
# EXPERIMENT: JAK kinase assay (HTRF), JAK1
# CONDITIONS: catalytic domain (aa 850-1154), GST-tag, ATP at Km (7 μM)
Entry type: numeric. Quantity: pEC50, the -log10 of concentration in molar units.

Example compounds with recorded pEC50:
> print(dat)
                                   compound  quantity.measured  reading
1  CC12CN(c3ccc(C#N)cn3)C[C@H]1CCN(c1ncnc3[nH]ccc13)C2 (stereo in doubt) [Example 33]              pEC50     9.00
2  C[C@]12CN(C(=O)CC#N)C[C@H]1CCN(c1ncnc3[nH]ccc13)C2 (racemic) [Example 32]              pEC50     7.80
3  C[C@]12CN(c3ccc(C#N)cn3)CC[C@H]1CCN(c1ncnc3[nH]ccc13)C2 (racemic) [Example 5]              pEC50     8.00

Next compound, pEC50 to be filled in.
IN: Would you mind telling me what pEC50 value was observed for CC[C@]12CN(C(C)=O)CC[C@H]1CCN(c1ncnc3[nH]ccc13)C2 (relative stereo) [Example 15] ?
OUT: 6.92

====

# TESTED_TARGET: TYK2 (Homo sapiens (Human), UniProt P29597)
# Sequence (P29597 871-1187): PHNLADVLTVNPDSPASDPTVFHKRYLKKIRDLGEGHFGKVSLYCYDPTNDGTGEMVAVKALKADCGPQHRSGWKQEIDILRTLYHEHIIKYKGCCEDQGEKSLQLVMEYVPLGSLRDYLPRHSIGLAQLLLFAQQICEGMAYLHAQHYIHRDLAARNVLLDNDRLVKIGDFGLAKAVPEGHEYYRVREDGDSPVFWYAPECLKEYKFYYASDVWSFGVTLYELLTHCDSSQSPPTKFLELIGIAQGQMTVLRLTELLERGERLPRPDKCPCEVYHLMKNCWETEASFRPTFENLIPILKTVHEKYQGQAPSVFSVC
# EXPERIMENT: JAK kinase assay (HTRF), TYK2
# CONDITIONS: catalytic domain (aa 871-1187), GST-tag, ATP at Km (13 μM)
Listed here: items and their measured pEC50.
Entry type: numeric. Quantity: pEC50, the -log10 of concentration in molar units.

Example molecules with recorded pEC50:
> print(dat)
                                   molecule  reading
1  C[C@]12CN(c3ccc(S(C)(=O)=O)cn3)C[C@H]1CCN(c1ncnc3[nH]ccc13)C2 (racemic)     5.61
2  C[C@]12CN(c3ncc(C#N)cn3)C[C@H]1CCN(c1ncnc3[nH]ccc13)C2 (racemic)     5.69
3  CC[C@]12CN(C#N)CC[C@H]1CCN(c1ncnc3[nH]ccc13)C2 [Example 22]     8.22

Next molecule, pEC50 to be filled in.
IN: Would you mind telling me what pEC50 value was observed for C[C@@]12CN(C#N)C[C@@H]1CCN(c1ncnc3[nH]ccc13)C2 ?
OUT: 5.61

====

Listed here: items and their measured EC50.
# TESTED_TARGET: JAK2 (Homo sapiens (Human))
# EXPERIMENT: JAK kinase assay (HTRF), JAK2
# CONDITIONS: catalytic domain, His-tag, ATP at Km (4 μM)
Please give a number only; it is taken to be in nM.

IN: Would you mind telling me what EC50 value was observed for C[C@@]12CN(c3ncnc4[nH]ccc34)CC[C@@H]1CCN(S(N)(=O)=O)C2 (racemic) ?
OUT: 58

IN: Would you mind telling me what EC50 value was observed for CC[C@]12CN(C#N)CC[C@H]1CCN(c1ncnc3[nH]ccc13)C2 [Example 22] ?
OUT: 2

IN: Would you mind telling me what EC50 value was observed for Cc1cc(N2C[C@H]3CCN(c4ncnc5[nH]ccc45)C[C@@]3(C)C2)ncc1C#N (racemic) ?
OUT: 28

IN: Would you mind telling me what EC50 value was observed for C[C@@]12CN(c3ncnc4[nH]ccc34)CC[C@@H]1CN(S(C)(=O)=O)C2 (racemic) ?
OUT: 154

====

# TESTED_TARGET: TYK2 (Homo sapiens (Human), UniProt P29597)
# EXPERIMENT: JAK kinase assay (HTRF), TYK2
# CONDITIONS: catalytic domain (aa 871-1187), GST-tag, ATP at Km (13 μM)
Listed here: items and their measured EC50.
Please give a number only; it is taken to be in nM.

> print(dat)
                                   compound  quantity.measured  uom  reading
1  C[C@]12CN(C#N)CC[C@H]1CCN(c1ncnc3[nH]ccc13)C2 [Example 1]               EC50   nM       13
2  C[C@]12CN(c3cnc(C#N)cn3)C[C@H]1CCN(c1ncnc3[nH]ccc13)C2 (racemic)               EC50   nM      232

IN: Would you mind telling me what EC50 value was observed for Cc1cc(N2CC[C@H]3CCN(c4ncnc5[nH]ccc45)C[C@@]3(C)C2)ncc1C#N (racemic) ?
OUT: 2110

IN: Would you mind telling me what EC50 value was observed for CC[C@]12CN(C(C)=O)CC[C@H]1CCN(c1ncnc3[nH]ccc13)C2 (relative stereo) ?
OUT: 1040

IN: Would you mind telling me what EC50 value was observed for C[C@@]12CN(c3ncnc4[nH]ccc34)CC[C@@H]1CN(S(N)(=O)=O)C2 (racemic) ?
OUT: 473

IN: Would you mind telling me what EC50 value was observed for CC12CN(c3ccc(C#N)cn3)C[C@H]1CCN(c1ncnc3[nH]ccc13)C2 (stereo in doubt) ?
OUT: 59

IN: Would you mind telling me what EC50 value was observed for C[C@@]12CN(C#N)CC[C@@H]1CCN(c1ncnc3[nH]ccc13)C2 ?
OUT: 1480

IN: Would you mind telling me what EC50 value was observed for CC[C@]12CN(c3ncnc4[nH]ccc34)CC[C@H]1CCN(S(N)(=O)=O)C2 ?
OUT: 1880

====

Listed here: items and their measured EC50.
# TESTED_TARGET: UniProt:P52333
# Sequence (P52333 822-1111): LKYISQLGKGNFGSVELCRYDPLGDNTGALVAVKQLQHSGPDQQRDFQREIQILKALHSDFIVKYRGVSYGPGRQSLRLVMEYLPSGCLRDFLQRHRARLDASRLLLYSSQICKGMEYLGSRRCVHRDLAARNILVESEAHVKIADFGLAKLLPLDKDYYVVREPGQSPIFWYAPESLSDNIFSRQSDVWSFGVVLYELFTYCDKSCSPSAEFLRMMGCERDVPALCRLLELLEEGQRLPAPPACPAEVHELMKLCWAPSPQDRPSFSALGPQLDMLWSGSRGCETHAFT
# EXPERIMENT: JAK kinase assay (HTRF), JAK3
# CONDITIONS: catalytic domain, His-tag, ATP at Km (2 μM)
Please give a number only; it is taken to be in nM.

Example compounds with recorded EC50:
> print(dat)
                                    compound   tested.target  quantity.measured  uom  reading
 1  CC12CN(c3ccc(C#N)cn3)C[C@@H]1CCN(c1ncnc3[nH]ccc13)C2 (stereo in doubt) [Example 34]  UniProt:P52333               EC50   nM     1170
 2  C[C@]12CN(c3ncc(C#N)cn3)C[C@H]1CCN(c1ncnc3[nH]ccc13)C2 (racemic) [Example 41]  UniProt:P52333               EC50   nM       70
 3  CC[C@]12CN(C#N)CC[C@H]1CCN(c1ncnc3[nH]ccc13)C2 (relative stereo) [Example 23]  UniProt:P52333               EC50   nM       14
 4  C[C@]12CN(c3ccncn3)C[C@H]1CCN(c1ncnc3[nH]ccc13)C2 (racemic) [Example 39]  UniProt:P52333               EC50   nM      199
 5  Cc1cc(C#N)cnc1N1C[C@H]2CCN(c3ncnc4[nH]ccc34)C[C@@]2(C)C1 (racemic) [Example 44]  UniProt:P52333               EC50   nM       99
 6  C[C@]12CN(c3ccc(C#N)nn3)C[C@H]1CCN(c1ncnc3[nH]ccc13)C2 (racemic) [Example 42]  UniProt:P52333               EC50   nM       78
 7  Cc1cc(N2CC[C@H]3CCN(c4ncnc5[nH]ccc45)C[C@@]3(C)C2)ncc1C#N (racemic) [Example 8]  UniProt:P52333               EC50   nM       21
 8  C[C@]12CN(c3cnc(C#N)cn3)C[C@H]1CCN(c1ncnc3[nH]ccc13)C2 (racemic) [Example 43]  UniProt:P52333               EC50   nM       37
 9  C[C@@]12CN(c3ncnc4[nH]ccc34)CC[C@@H]1CN(S(N)(=O)=O)C2 (racemic) [Example 27]  UniProt:P52333               EC50   nM       54
10  C[C@@]12CN(c3ncnc4[nH]ccc34)CC[C@@H]1CN(S(=O)(=O)NCC#N)C2 (racemic) [Example 30]  UniProt:P52333               EC50   nM       91

IN: Param readout = EC50; param system = UniProt:P52333; param query = C[C@@]12CN(c3ncnc4[nH]ccc34)CC[C@@H]1CCN(S(N)(=O)=O)C2 (racemic) [Example 9] ; response: value
OUT: 8
